Consider the following molecules; for each one, report its Scenedesmus species toxicity.
# Test system: Scenedesmus species
# testDescription: Algae sensitivity screen, 96 well, growth rate by A750 over 8 days
# Assay type: cell-based
# experimentalParameters: Scenedesmus species, 8 days
# Description: The total volume per well is 200 μl. Each chemical is tested in triplicate.

Challenge: Which Scenedesmus species toxicity is reported for this molecule? CCCOC/C(=N\c1ccc(Cl)cc1C(F)(F)F)n1ccnc1
Response given: 1.563-6.25 ppm

Challenge: Can you look up the measured Scenedesmus species toxicity of Cc1ccc(N(SC(F)(Cl)Cl)S(=O)(=O)N(C)C)cc1 for me?
Response given: 6.25-25.0 ppm

Challenge: Field request: Scenedesmus species toxicity | item: Cc1ccc(-c2c(Cl)nc(C#N)n2S(=O)(=O)N(C)C)cc1
Response given: 0.03125-0.125 ppm

Challenge: Which Scenedesmus species toxicity is reported for this molecule? CCCN(CC)CC1COC2(CCC(C(C)(C)C)CC2)O1 (centres unmarked)
Response given: 0.250-1.0 ppm

Challenge: # Scenedesmus species toxicity lookup, item CCC(C)(NC(=O)c1cc(Cl)c(C)c(Cl)c1)C(=O)CCl (centres unmarked) [zoxamide]
Response given: 0.0156-0.0625 ppm
